- METHOD_SUMMARY: chemical genetic growth profiling, strain panel (AID 1159580);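 also: tested at 20 µM; growth read once vehicle control cultures reached saturation at 30 °C; lower values mean less growth of the strain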
- CONDITION_DETAILS: S. cerevisiae deletion strains, growth OD, locus YNL298W, strain CLA4 (second series)
In all, about 5,500 compounds went through this assay and about 2,000 (36%) were called active. Inconclusive results (about 18%) are left out. Rule as the data show it: active = normalized growth mostly below about 0.91 (no sharp cut-off); inconclusive = no clear call, values can overlap the other calls; inactive = mostly above about 0.92. The list shows a part of the results.
Possible outcomes: active, inactive

compound=O=C(NCCSCc1ccco1)Nc1cc(Cl)cc(Cl)c1 cat=inactive
compound=CC(C)N(Cc1ccc(N(C)C)cc1)S(=O)(=O)c1cc(Cl)c(Cl)cc1Cl cat=inactive
compound=CN(/N=C\c1ccccc1)c1ncc(C(F)(F)F)cc1Cl cat=inactive
compound=N#Cc1c(N)sc2c1CCCCC2 cat=inactive
compound=O=C(NCCSCc1ccc(Cl)cc1)c1ccc(Cl)cc1 cat=active
compound=Fc1cccc(Cl)c1CSc1nncn1-c1ccc(OCc2ccccc2)cc1 cat=inactive
compound=CN1CCN(C=Nc2ncc(C(F)(F)F)cc2Cl)CC1 cat=inactive
compound="COc1ccc(OC)c(S(=O)(=O)N2CCc3cc(OC)c(OC)cc3C2C)c1 (configuration not stated)" cat=inactive
compound=c1ccc2c(c1)CCc1c-2[nH]c2ccccc12 cat=active
compound=O=C(COC(=O)c1ccccc1Nc1ccccc1)c1ccc(Cl)cc1 cat=inactive
compound=O=S(=O)(N/N=C\c1ccc(Cl)cc1)c1ccc(-c2ccccn2)s1 cat=active
compound=Cc1oc(S(=O)(=O)N(C)C)cc1C(=O)O cat=inactive
